Molecule | melting point
Cc1c2n(c3c(-c4ccc(F)c(F)c4F)cc(Cl)cc13)CCNC2=O | 205.5 °C
Cc1c2n(c3c(-c4ccc(F)c(F)c4)cc(F)cc13)CCNC2=O | 229.5 °C
N#Cc1cc(-c2ccc(C(F)(F)F)cc2)c2c(c1)cc1n2CCNC1=O | 359 °C
Cc1c2n(c3c(-c4cc(F)cc(F)c4)cc(C#N)cc13)CCCNC2=O | 265 °C
Cc1c2n(c3c(-c4ccc(Cl)c(Cl)c4)cc(Cl)cc13)CCNC2=O | 240 °C

----------
# EC (150% of control) listing for each entry below
system: human embryonic stem cell derived neural stem cells (NSCs); test: Neural Stem Cell Proliferation Assay (neurogenesis assay, ATP levels by CellTiterGlo); assay type: cell-based; conditions: 96 h, compound concentration at which 150% activity of control (100%) is reached, NSC proliferation by ATP level after 4 days incubation, dose response 8 μM to 8 nM
Reported property: EC (150% of control) (µM)

Compound | Unit label | Observed value
O=C1NCCn2c1c(C(F)(F)F)c1cc(F)cc(-c3ccc(F)cc3)c12 [Example 181] | µM | 0.62
N#Cc1cc(-c2ccc(Cl)c(Cl)c2)c2c(c1)cc1n2CCNC1=O [Example 192] | µM | 0.13
COc1ccc(-c2cc(C#N)cc3c(C)c4n(c23)CCCNC4=O)cc1 [Example 262] | µM | 0.029
COc1ccc(-c2c(F)c(F)cc3cc4n(c23)CCNC4=O)cc1 [Example 39] | µM | 0.005
N#Cc1cc(-c2cc(F)c(F)c(F)c2)c2c(c1)cc1n2CCCNC1=O [Example 248] | µM | 0.62
Cc1c2n(c3c(-c4cc(F)c(F)c(F)c4)cc(F)cc13)CCNC2=O [Example 159] | µM | 0.22
C[C@@H]1CNC(=O)c2cc3cccc(-c4ccccc4)c3n21 [Example 1] | µM | 3.97
Cc1c2n(c3c(-c4cc(F)c(F)c(F)c4)cc(Cl)cc13)CCNC2=O [Example 136] | µM | 0.021
Cc1c2n(c3c(-c4ccc(F)cc4F)cc(F)cc13)CCNC2=O [Example 122] | µM | 0.013
Cc1c2n(c3c(-c4ccc(Cl)c(F)c4)cc(F)cc13)CCNC2=O [Example 85] | µM | 0.04
Cc1cc(-c2cc(Cl)cc3c(C)c4n(c23)CCNC4=O)ccc1F [Example 134] | µM | 0.083
COc1ccc(-c2cc(Cl)cc3cc4n(c23)CCNC4=O)cc1 [Example 52] | µM | 0.022
C[C@@H]1CNC(=O)c2cc3cc(F)cc(-c4ccccc4)c3n21 [Example 4] | µM | 0.37
Cc1c2n(c3c(-c4ccc(C(C)(C)C)cc4)cc(C#N)cc13)CCNC2=O [Example 280] | µM | 0.14
Cc1c2n(c3c(-c4cccc(F)c4)cc(F)cc13)CCNC2=O [Example 87] | µM | 0.1
Cc1c2n(c3c(-c4ccc(F)cc4)cc(C#N)cc13)CCCNC2=O [Example 198] | µM | 0.033
N#Cc1cc(-c2cccc(F)c2)c2c(c1)cc1n2CCNC1=O [Example 223] | µM | 0.076
CS(=O)(=O)c1ccc(-c2cc(C#N)cc3cc4n(c23)CCCNC4=O)cc1 [Example 256] | µM | 1.42
Cc1c2n(c3c(-c4ccc(Cl)nc4)cc(C#N)cc13)CCNC2=O [Example 278] | µM | 0.44
COc1ccc(-c2cc(C)cc3cc4n(c23)CCNC4=O)cc1 [Example 61] | µM | 0.059
Cc1c2n(c3c(-c4cccnc4)cc(C#N)cc13)CCNC2=O [Example 282] | µM | 0.96
Cc1ccc(-c2cc(C#N)cc3cc4n(c23)CCCNC4=O)cc1 [Example 287] | µM | 0.22
Cc1c2n(c3c(-c4cccc(Cl)c4)cc(Cl)cc13)CCNC2=O [Example 115] | µM | 0.43
COc1ncc(-c2cc(Cl)cc3c(C)c4n(c23)CCNC4=O)cn1 [Example 142] | µM | 0.039
CC(C)(C)c1ccc(-c2cc(C#N)cc3cc4n(c23)CCNC4=O)cc1 [Example 230] | µM | 0.14
Cc1c2n(c3c(-c4ccc(Cl)cc4Cl)cc(C#N)cc13)CCCNC2=O [Example 206] | µM | 0.031
N#Cc1cc(-c2cccc(F)c2)c2c(c1)cc1n2CCCNC1=O [Example 239] | µM | 0.61
Cc1c2n(c3c(-c4ccc(Cl)c(Cl)c4)cc(F)cc13)CCNC2=O [Example 86] | µM | 0.05
Cc1c2n(c3c(-c4ccc(F)c(F)c4)cc(C#N)cc13)CCCNC2=O [Example 196] | µM | 0.086
N#Cc1cc(-c2cncnc2)c2c(c1)cc1n2CCNC1=O [Example 225] | µM | 1.75
COc1ccc(-c2cc(F)c(F)c3cc4n(c23)CCCNC4=O)cc1 [Example 37] | µM | 0.45
Cc1c2n(c3c(-c4cccc(F)c4)cc(C#N)cc13)CCCNC2=O [Example 289] | µM | 0.035
Cc1c2n(c3c(-c4ccc(F)cc4)cc(Cl)cc13)CCCNC2=O [Example 70] | µM | 0.063
Cc1c2n(c3c(-c4ccc(F)nc4)cc(C#N)cc13)CCCNC2=O [Example 209] | µM | 0.16
Cc1cc(-c2ccc(Cl)cc2)c2c(c1)cc1n2CCCNC1=O [Example 58] | µM | 1.51
O=C1NCCn2c1cc1cc(Cl)cc(-c3ccc(F)c(F)c3)c12 [Example 50] | µM | 0.13
Cc1ccc(-c2cc(F)cc3cc4n(c23)[C@H](C)CNC4=O)cc1 [Example 8] | µM | 0.048

----------
Compound | melting point
Cc1c2n(c3c(-c4cc(F)c(F)c(F)c4)cc(Cl)cc13)CCNC2=O | 253 °C
N#Cc1cc(-c2ccc(OC(F)(F)F)cc2)c2c(c1)cc1n2CCNC1=O | 311.5 °C
N#Cc1cc(-c2ccc(CO)cc2)c2c(c1)cc1n2CCNC1=O | 257.5 °C
Cc1cc(-c2ccc(Cl)cc2)c2c(c1)cc1n2CCNC1=O | 269 °C
O=C1NCCCn2c1cc1cc(F)cc(-c3ccc(C(F)(F)F)cc3)c12 | 257 °C
N#Cc1cc(-c2ccc(Cl)cc2Cl)c2c(c1)cc1n2CCNC1=O | 284.5 °C
CC1CCNC(=O)c2cc3cc(F)cc(-c4ccc(F)cc4)c3n21 (racemic) | 235.5 °C
N#Cc1cc(-c2cccc(F)c2)c2c(c1)cc1n2CCNC1=O | 248.5 °C
Cc1c2n(c3c(-c4ccc(F)cc4F)cc(C#N)cc13)CCNC2=O | 237 °C

----------
test system: human embryonic stem cell derived neural stem cells (NSCs); test: Neural Stem Cell Proliferation Assay (neurogenesis assay, ATP levels by CellTiterGlo); assay type: cell-based; conditions: 96 h, compound concentration at which 150% activity of control (100%) is reached, NSC proliferation by ATP level after 4 days incubation, dose response 8 μM to 8 nM
# EC (150% of control) listing for each entry below

Compound | EC (150% of control), µM
Cc1c2n(c3c(-c4ccc(F)nc4)cc(Cl)cc13)CCNC2=O [Example 114] | 0.04
Cc1c2n(c3c(-c4ccnc(F)c4)cc(Cl)cc13)CCNC2=O [Example 108] | 0.021
Cc1c2n(c3c(-c4ccc(Cl)cc4)cc(Cl)cc13)CCCNC2=O [Example 69] | 0.061
Cc1c2n(c3c(-c4cnc(N)nc4)cc(Cl)cc13)CCNC2=O [Example 143] | 0.32
Cc1c2n(c3c(-c4ccc(N)nc4)cc(F)cc13)CCNC2=O [Example 160] | 0.18
C[C@@H]1CNC(=O)c2cc3cc(F)cc(-c4cc(F)cc(F)c4)c3n21 [Example 9] | 0.37
Cc1c2n(c3c(-c4ccnc(Cl)c4)cc(F)cc13)CCNC2=O [Example 140] | 0.12
O=C1NCCCn2c1cc1cc(F)cc(-c3ccc(F)c(F)c3)c12 [Example 28] | 0.1
Cc1c2n(c3c(-c4cccc(F)c4)cc(Cl)cc13)CCNC2=O [Example 96] | 0.15

----------
tested on: human embryonic stem cell derived neural stem cells (NSCs); assay: Neural Stem Cell Proliferation Assay (neurogenesis assay, ATP levels by CellTiterGlo); assay type: cell-based; settings: 96 h, compound concentration at which 150% activity of control (100%) is reached, NSC proliferation by ATP level after 4 days incubation, dose response 8 μM to 8 nM

Molecule | Unit label | EC (150% of control)
O=C1NCCn2c1cc1cc(F)cc(-c3ccc(F)cc3)c12 | µM | 0.026
O=C1NCCCn2c1cc1cc(Cl)cc(-c3ccc(F)cc3)c12 | µM | 0.43
COc1ccc(-c2cccc3cc4n(c23)[C@H](C)CNC4=O)cc1 | µM | 0.85
COc1ccc(-c2cc(C#N)cc3cc4n(c23)CCCNC4=O)cc1 | µM | 1.11
O=C1NCCn2c1cc1cc(F)cc(-c3ccc(C(F)(F)F)cc3)c12 | µM | 0.023
Cc1ccc(-c2cc(C#N)cc3c(C)c4n(c23)CCNC4=O)cc1F | µM | 0.71
Cc1c2n(c3c(-c4ccc(F)cc4)cc(F)cc13)CCNC2=O | µM | 0.072
Cc1c2n(c3c(-c4ccnc(F)c4)cc(C#N)cc13)CCCNC2=O | µM | 0.049
Cc1c2n(c3c(-c4ccc(Cl)c(Cl)c4)cc(Cl)cc13)CCNC2=O | µM | 0.056
Cc1cc(-c2ccc(Cl)cc2)c2c(c1)cc1n2CCNC1=O | µM | 0.18
Cc1c2n(c3c(-c4cccc(C#N)c4)cc(F)cc13)CCNC2=O | µM | 0.33
Cc1c2n(c3c(-c4ccc(S(C)(=O)=O)cc4)cc(Cl)cc13)CCNC2=O | µM | 0.027
Cc1c2n(c3c(-c4ccc(Cl)cc4F)cc(Cl)cc13)CCNC2=O | µM | 0.006
Cc1c2n(c3c(-c4ccco4)cc(F)cc13)CCNC2=O | µM | 0.1
Cc1ccc(-c2cc(F)cc3c(C)c4n(c23)CCNC4=O)cc1F | µM | 0.039
N#Cc1cc(-c2ccc(Cl)cc2Cl)c2c(c1)cc1n2CCCNC1=O | µM | 0.13
Cc1c2n(c3c(-c4ccc(C(C)C)cc4)cc(Cl)cc13)CCNC2=O | µM | 0.05
Cc1c2n(c3c(-c4ccc(Cl)c(Cl)c4)cc(C#N)cc13)CCNC2=O | µM | 0.12
Cc1c2n(c3c(-c4ccc(Cl)s4)cc(F)cc13)CCNC2=O | µM | 0.19
